Tested on: mouse
method-summary: exploratory light/dark test procedure (anxiolytic activity)
Format: in vivo
test-parameters: dose 10.0 mg/kg
Provide the reported % of Time in Lit Area, Compound of each item.
Numbers only, in %.

Query string: Consider the compound Cc1c[nH]c(Cn2c(-c3ccc(Cl)cc3)nc3cccnc32)n1 . State its measured % of Time in Lit Area, Compound.
Result string: 40

Query string: Consider the compound Cc1ccc(-c2nc3ccc(C)nc3n2Cc2ccccn2)cc1 . State its measured % of Time in Lit Area, Compound.
Result string: 38

Query string: Consider the compound Cc1ccc(-c2nc3cccnc3n2Cc2nc(C)c[nH]2)cc1 . State its measured % of Time in Lit Area, Compound.
Result string: 51

***
Query string: Consider the compound Clc1ccc(-c2nc3ccc(Cl)nc3n2Cc2ncc[nH]2)cc1 . State its measured % of Time in Lit Area, Compound.
Result string: 40

---

study-system: benzodiazepine receptor
method-summary: inhibition of [^3 H]-flunitrazepam binding to the benzodiazepine receptor
test-parameters: [^3 H]-flunitrazepam, in vitro; read-out: ^3 H-Flu binding IC50
Provide the reported IC50 of each item.
One number for each entry, in nM.

Query string: Consider the compound Cc1ccc(-c2nc3cccnc3n2Cc2ccccn2)cc1 . State its measured IC50.
Result string: 3100

Query string: Consider the compound Cc1ccc(-c2nc3ccc(C)nc3n2Cc2ccccn2)cc1 . State its measured IC50.
Result string: 3900

Query string: Consider the compound Clc1ccc(-c2nc3cccnc3n2Cc2ccccn2)cc1 . State its measured IC50.
Result string: 7000

Query string: Consider the compound Cc1ccc(-c2nc3cccnc3n2Cc2ncc[nH]2)cc1 . State its measured IC50.
Result string: 140

Query string: Consider the compound Clc1ccc(-c2nc3ccc(Cl)nc3n2Cc2ccccn2)cc1 . State its measured IC50.
Result string: 3300

Query string: Consider the compound Cc1ccc(-c2nc3cccnc3n2Cc2nc(C)c[nH]2)cc1 . State its measured IC50.
Result string: 220

Query string: Consider the compound Cc1c[nH]c(Cn2c(-c3ccc(Cl)cc3)nc3cccnc32)n1 . State its measured IC50.
Result string: 390

Query string: Consider the compound Cc1ccc2nc(-c3ccc(Cl)cc3)n(Cc3ccccn3)c2n1 . State its measured IC50.
Result string: 7300

Query string: Consider the compound Cc1ccc(-c2nc3ccc(Cl)nc3n2Cc2ncc[nH]2)cc1 . State its measured IC50.
Result string: 300

Query string: Consider the compound Cc1ccc(-c2nc3ccc(Cl)nc3n2Cc2ccccn2)cc1 . State its measured IC50.
Result string: 1600

# per-item lookup of IC50; items listed below
1. Clc1ccc(-c2nc3cccnc3n2Cc2ncc[nH]2)cc1
2. Clc1ccc(-c2nc3ccc(Cl)nc3n2Cc2ncc[nH]2)cc1

Result string:
1: 410; 2: 130

# credit: patent US5066654A
